# System: bcr3-abl2 peptide-specific CD4^+ T cell clones
# protocolText: Proliferative assay of bcr3-abl2 peptide-specific CD4+ T cell clones ([3H] thymidine incorporation)
# Type: cell-based, BALB/c mice
# experimentalContext: T cell clone 1D2; peptides of varying lengths 5 μg/ml; 96 hour culture; Table 4
Can you tell me [^3H] Thymidine Incorporation (c.p.m.) after Stimulation with bcr3-abl2 peptide (5 μg/ml) for the items I'm about to list?

Exercise: For the substance shown here, G F K Q S S K A L Q R P (GFKQSSKALQRP) [bcr3-abl2 12 mer peptide, 12 amino acid peptide identical to the joining region of p210 bcr-abl (bcr exon 3 fused to c-abl exon 2)] , give the reported [^3H] Thymidine Incorporation (c.p.m.) after Stimulation with bcr3-abl2 peptide (5 μg/ml).
Key: 120,049 c.p.m.

Exercise: Could you share which [^3H] Thymidine Incorporation (c.p.m.) after Stimulation with bcr3-abl2 peptide (5 μg/ml) value was measured for H S A T G F K Q S S K A L Q R P V A (HSATGFKQSSKALQRPVA) [bcr3-abl2 18-mer] ?
Key: 150,309 c.p.m.

Exercise: What value of [^3H] Thymidine Incorporation (c.p.m.) after Stimulation with bcr3-abl2 peptide (5 μg/ml) has been recorded for this entry: IVHSATGFKQSSKALQRPVASD (IVHSATGFKQSSKALQRPVASD) [bcr3-abl2 22-mer]
Key: 21,208 c.p.m.

Exercise: What value of measured [^3H] Thymidine Incorporation (c.p.m.) after Stimulation with bcr3-abl2 peptide (5 μg/ml) is listed for G F K Q S S K A L Q R P V A S D (GFKQSSKALQRPVASD) [bcr3-abl2 16-mer] ?
Key: 108,309 c.p.m.

Exercise: Can you look up the measured [^3H] Thymidine Incorporation (c.p.m.) after Stimulation with bcr3-abl2 peptide (5 μg/ml) of G F K Q S S K A L Q R P V A (GFKQSSKALQRPVA) [bcr3-abl2 14-mer peptide] for me?
Key: 238,297 c.p.m.

====

# System: bcr3-abl2 peptide-specific CD4^+ T cell clones
# protocolText: Proliferative assay of bcr3-abl2 peptide-specific CD4+ T cell clones ([3H] thymidine incorporation)
# Format: cell-based, BALB/c mice
# experimentalContext: T cell clone 3B7; peptide 5 μg/ml; 96-hour culture; Table 2
Provide the reported [^3H] Thymidine Incorporation (c.p.m.) of each item.

Exercise: Request the reported [^3H] Thymidine Incorporation (c.p.m.) associated with I V H S A T G F K Q S S (IVHSATGFKQSS) [bcr3, reference compound]
Key: 462 c.p.m.

Exercise: // lookup [^3H] Thymidine Incorporation (c.p.m.) for G F K Q S S K A L Q R P (GFKQSSKALQRP) [bcr3-abl2 12 mer peptide, 12 amino acid peptide identical to the joining region of p210 bcr-abl (bcr exon 3 fused to c-abl exon 2)]
Key: 64,935 c.p.m.

Exercise: I am curious: what [^3H] Thymidine Incorporation (c.p.m.) value has been reported for L T I N K E E A L Q R P (LTINKEEALQRP) [bcr2-abl2, 12 mer of p210 joining region, bcr exon 2 fused to c-abl exon 2, reference compound] ?
Key: 349 c.p.m.

Exercise: Can you share its [^3H] Thymidine Incorporation (c.p.m.)? I mean this substance: A F H G D A Q A L Q R P V A (AFHGDAQALQRPVA) [BCRI-abl2, 14 mer of p185 bcr-abl joining region, reference compound]
Key: 277 c.p.m.
